Test system: SN12C
Test: NCI tumour cell line growth inhibition, 48 h
Activity calls are given as the source filed them. Rule as the data show it: active = GI50 up to about 1.1 µM and inactive = higher.
Can you tell me GI50 for the items I'm about to list?

[ask] Consider the molecule shown here: CN(C)C(=S)N1C(=S)N(c2ccccc2)C(=N/c2ccccc2)/C1=N\c1ccccc1 What is its recorded GI50?
[reply] > 100 µM (inactive)

[ask] Need GI50 of O=C1CC(CC(=O)C2CCCCC2=O)C(=O)N1 (configuration not stated) , thanks.
[reply] > 100 µM (inactive)

[ask] Looking for the measured GI50 of N#CCCN(CCC#N)c1ccc(C(=O)NN)cc1 , can you help?
[reply] > 100 µM (inactive)

[ask] Recorded GI50 for O=C1NC(N2CCOCC2)=N/C1=C\c1ccco1 , please?
[reply] > 100 µM (inactive)

[ask] Report GI50 for Cc1ccc(S(=O)(=O)N(/N=C/C=C/c2ccccc2)c2nnc(-c3ccccc3)c(-c3ccccc3)n2)cc1 please.
[reply] 38.4 µM (inactive)

[ask] // query GI50 value for entry O=C1O/C(=C(/Cl)c2c3ccccc3cc3ccccc23)c2ccccc21
[reply] 26.1 µM (inactive)

[ask] // lookup GI50 for COC(=O)C(C(=O)C(=O)Nc1c(C)cccc1C)c1cnc2ccccc2n1 (configuration not stated)
[reply] > 100 µM (inactive)

[ask] Report GI50 for O=C1NCN(c2ccccc2)C12CCN(CC1COc3ccccc3O1)CC2 (configuration not stated) please.
[reply] > 100 µM (inactive)

[ask] Reported GI50, molecule COC(=O)C1=CSC2(S1)C(C(=O)OC)=CSc1c2ss/c1=N\c1ccccc1 (configuration not stated) : ____
[reply] 1.88 µM (inactive)

[ask] // GI50 lookup, key: CCCC[C@@H]1CCN2C[C@@H](O)[C@@H](O)[C@@H]2[C@H]1O
[reply] > 100 µM (inactive)

[ask] I would be grateful if you could share the reported GI50 for COc1cc(C2C(Cl)C(=O)N2n2cnc3ccccc3c2=O)ccc1O (configuration not stated) .
[reply] 89.5 µM (inactive)

[ask] Which GI50 reading was recorded for the molecule Cc1csc2nc3[nH]ncc3c(=O)n12 ?
[reply] > 100 µM (inactive)

[ask] Tell me the measured GI50 of N#Cc1c(-c2ccccc2)[nH]c(=O)n(C2OC(CO)C(O)C(O)C2O)c1=O (configuration not stated) , please.
[reply] > 100 µM (inactive)

[ask] What does the record list as GI50 for Clc1ccc(-c2nnc(C34CC5CC(CC(C5)C3)C4)o2)cc1 ?
[reply] > 100 µM (inactive)

[ask] Fill blank: measured GI50 of the molecule CC(=O)O[C@]12CCCCCC1C1(O)C(O)CCC[C@H]12 (some centres not stated) is ____.
[reply] > 100 µM (inactive)

[ask] Field request: GI50 | item: Nn1c(Cc2ccc([N+](=O)[O-])cc2)n[nH]c1=O
[reply] > 100 µM (inactive)

[ask] Sample COc1ccc2cc(C(=O)c3ccccc3C(=O)O)ccc2c1 — what was its GI50?
[reply] > 100 µM (inactive)

[ask] Which GI50 is listed for O=c1ccc2nc3cc(Br)ccc3sc-2c1 ?
[reply] > 100 µM (inactive)

[ask] Any idea what GI50 was measured for CCN(CC)CCSc1c2ccccc2nc2cc(NCC(=O)Nc3ccccc3-c3ccccc3NC(=O)CNc3ccc4c(SCCN(CC)CC)c5ccccc5nc4c3)ccc12 ?
[reply] > 100 µM (inactive)

[ask] Which GI50 value is on record for Cc1cn(C2CC(N=[N+]=[N-])C(C(=O)O)O2)c(=O)[nH]c1=O (configuration not stated) ?
[reply] > 100 µM (inactive)

[ask] # query: GI50 of entry CCCCCCCCC/C=C1/CC(CO)(COC(=O)C2CCCCC2)OC1=O (configuration not stated)
[reply] > 100 µM (inactive)

[ask] Value lookup for GI50; key = CC(=O)/C(=C\c1cccc([N+](=O)[O-])c1)C(=O)Nc1ccccc1C
[reply] > 100 µM (inactive)
